B1: library; a variant is named by its letters at N, in order (parent)
chain: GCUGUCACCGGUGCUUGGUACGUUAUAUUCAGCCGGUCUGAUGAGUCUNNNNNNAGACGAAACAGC

variants of: B1; test: FACS-Seq fitted mean relative fluorescence mCherry/BFP with ligand (log10 relative fluorescence); HEK293T overexpressing SLC46A1; ligand concentration (+) FACS-Seq: 6 mM; higher = higher reporter protein expression; details: with (6R,S)-folinic acid; ligand present: yes
Each entry gets label 0 if its FACS-Seq fitted mean (log10) stays under 0.5, and label 1 if its FACS-Seq fitted mean (log10) is 0.5 or above.

Observe how each entry below is paired with its result.
> print(dat)
   variant.id  class.name
1      GUGUCA     label 0
2      AUUCAG     label 0
3      CCUUAU     label 0

I'd appreciate it if you could say whether "UUAGGG" has FACS-Seq fitted mean (log10) at least equal to 0.5.
label 0
